Tested on: AncSZ
Assay: phosphorylation enrichment, bacterial display (enrichment ratio); higher = better substrate or ligand; peptides without Tyr show the background
# phosphorylation enrichment >= 0.8 gives t, anything below gives f

In: Decide: phosphorylation enrichment of GRRNTYFASIA [ACADM_Y352_YF] >= 0.8?
Out: f

In: Now the sequence GEYYRYLAEVA [YWHAG_Y133_D129E]
Out: t

In: Now the sequence IEDPYYGNDFD [ACP1_Y133_S137F]
Out: t

In: Now the sequence RSYSPCDYQPC [TNS1_Y796_Y796C]
Out: t

In: Now the sequence GQKVAYGGTED [ALDH3A1_Y305_G309E]
Out: f

In: Now the sequence KVFRVYQGQQP [MUTYH_Y494]
Out: f

---

Target: FGFR3 (UniProt P22607)
Sequence (P22607 whole entry, looked up): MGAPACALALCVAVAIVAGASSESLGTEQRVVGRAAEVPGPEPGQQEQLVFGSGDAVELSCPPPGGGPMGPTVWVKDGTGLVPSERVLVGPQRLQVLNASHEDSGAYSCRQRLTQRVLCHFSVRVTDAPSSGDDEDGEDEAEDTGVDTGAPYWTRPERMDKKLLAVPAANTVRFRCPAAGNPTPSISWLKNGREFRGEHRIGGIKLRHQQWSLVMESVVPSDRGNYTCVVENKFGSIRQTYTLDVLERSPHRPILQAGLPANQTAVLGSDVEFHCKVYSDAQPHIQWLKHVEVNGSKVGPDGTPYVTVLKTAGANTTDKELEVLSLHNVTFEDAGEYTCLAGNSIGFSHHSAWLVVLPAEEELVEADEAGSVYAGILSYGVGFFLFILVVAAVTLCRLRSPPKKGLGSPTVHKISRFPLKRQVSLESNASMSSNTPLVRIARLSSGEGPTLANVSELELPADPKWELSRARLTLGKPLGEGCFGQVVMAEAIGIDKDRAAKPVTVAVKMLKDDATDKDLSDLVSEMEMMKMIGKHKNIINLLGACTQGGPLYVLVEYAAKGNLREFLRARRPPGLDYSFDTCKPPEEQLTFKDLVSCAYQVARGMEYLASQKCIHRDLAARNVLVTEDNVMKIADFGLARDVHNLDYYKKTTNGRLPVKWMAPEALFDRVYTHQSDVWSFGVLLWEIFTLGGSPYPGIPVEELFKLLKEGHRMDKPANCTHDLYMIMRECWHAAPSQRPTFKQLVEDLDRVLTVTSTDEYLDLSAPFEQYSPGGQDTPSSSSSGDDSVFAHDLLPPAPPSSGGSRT
Assay: phosphorylation enrichment, bacterial display (enrichment ratio); higher = better substrate or ligand; peptides without Tyr show the background
PROPERTY NAME: phosphorylation enrichment
Answer as a number with no unit attached.

In: So what phosphorylation enrichment did EPTPGYEVSQR [TSC2_Y1788_G1791S] get with FGFR3 (UniProt P22607)?
Out: 0.641

In: Now the sequence HLDRSYSYSYS [PEAR1_Y890_R885H]
Out: 0.66

In: Now the sequence VILENYGADID [DNAH5_Y596_L591V]
Out: 0.719

In: Now the sequence GSSSSCGQHGS [HRNR_Y517_Y517C]
Out: 0.522

In: Now the sequence REGAKYVSHDA [ASS1_Y113_G117D]
Out: 0.739

In: Now the sequence FYLGAYDRFLP [SLC22A5_Y486_V481F]
Out: 0.831

In: Now the sequence TQFWLYFAGNL [SLC25A5_Y112]
Out: 1

In: Now the sequence HKANEYFPVVI [ADAMTS18_Y764_L769I_YF]
Out: 5.96

In: Now the sequence EGELRYMHSRV [ABCD1_Y281_K276E]
Out: 0.485

In: Now the sequence GIYKDYYRYNF [PLA2G2D_Y85_S80G]
Out: 9.59

In: Now the sequence SGIYQYIIAKF [FOXL2_Y83]
Out: 4.7

In: Now the sequence PVKSEYPSIKL [NPC2_Y119]
Out: 0.623

In: Now the sequence KKCTRYIDCDR [ASPA_Y64_L69R]
Out: 0.542

---

Answer each item with its documented SH2 binding enrichment.
Molecular target: SHP2-C SH2
Experiment: SH2 binding enrichment of the phosphorylated peptide, bacterial display (enrichment ratio); higher = better substrate or ligand; peptides without Tyr show the background
Answer as a number with no unit attached.

In: Request the reported SH2 binding enrichment associated with AQAGEYGAEAL [HBA1_Y25_H21Q]
Out: 0.842

In: Now the sequence STGRSYAGVAV [KLHL3_Y577]
Out: 0.837

In: Now the sequence LVMFIDAIFGM [SCN1A_Y1684_Y1684D]
Out: 1.15

In: Now the sequence SLNEVYTKNKT [MSH2_Y563_E562V]
Out: 0.581

In: Now the sequence TLSGTYQYIIA [FOXL2_Y81_I80T]
Out: 1.43

In: Now the sequence GKMSSYAFFVQ [HMGB1_Y16]
Out: 1.51

In: Now the sequence RLLRGHDQYAY [HLA-B_Y137]
Out: 1.37

---

Biological target: MERTK (UniProt Q12866)
Sequence (Q12866 whole entry, looked up): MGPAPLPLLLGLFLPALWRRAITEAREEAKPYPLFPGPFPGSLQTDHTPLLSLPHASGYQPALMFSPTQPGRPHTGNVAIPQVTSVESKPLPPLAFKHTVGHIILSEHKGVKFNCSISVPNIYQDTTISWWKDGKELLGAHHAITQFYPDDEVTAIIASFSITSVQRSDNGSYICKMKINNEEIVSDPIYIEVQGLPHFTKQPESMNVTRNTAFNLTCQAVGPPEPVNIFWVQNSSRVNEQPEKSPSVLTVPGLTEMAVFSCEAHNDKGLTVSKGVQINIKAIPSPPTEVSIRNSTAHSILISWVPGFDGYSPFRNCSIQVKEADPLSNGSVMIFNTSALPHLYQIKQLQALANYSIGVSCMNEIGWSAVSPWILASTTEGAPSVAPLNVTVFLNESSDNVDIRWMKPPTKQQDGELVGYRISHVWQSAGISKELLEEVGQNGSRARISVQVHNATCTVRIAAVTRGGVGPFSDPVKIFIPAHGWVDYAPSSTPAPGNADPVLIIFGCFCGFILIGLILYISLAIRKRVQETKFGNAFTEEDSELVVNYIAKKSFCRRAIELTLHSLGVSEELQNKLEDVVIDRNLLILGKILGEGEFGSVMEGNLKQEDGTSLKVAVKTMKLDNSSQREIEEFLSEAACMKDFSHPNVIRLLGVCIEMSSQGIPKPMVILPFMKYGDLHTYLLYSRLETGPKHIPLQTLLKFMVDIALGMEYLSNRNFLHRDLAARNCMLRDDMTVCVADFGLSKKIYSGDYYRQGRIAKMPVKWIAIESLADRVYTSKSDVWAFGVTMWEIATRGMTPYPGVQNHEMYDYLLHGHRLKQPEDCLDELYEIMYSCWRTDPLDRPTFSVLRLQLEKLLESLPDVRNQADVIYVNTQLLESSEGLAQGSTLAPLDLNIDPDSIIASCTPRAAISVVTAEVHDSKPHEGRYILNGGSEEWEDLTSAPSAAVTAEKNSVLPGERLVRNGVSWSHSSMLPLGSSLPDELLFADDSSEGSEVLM
Assay: phosphorylation enrichment, bacterial display (enrichment ratio); higher = better substrate or ligand; peptides without Tyr show the background
Answer each item with its documented phosphorylation enrichment.
Answer as a number with no unit attached.

In: So what phosphorylation enrichment did LEQDEYALHSH [HADHB_Y244_R247H] get with MERTK (UniProt Q12866)?
Out: 0.578

In: Now the sequence CSEEMYRLMLQ [RET_Y981]
Out: 0.573

In: Now the sequence IVKAYYVRARA [AIPL1_Y268]
Out: 0.502

In: Now the sequence DLSEVYKPRRK [CCDC93_Y176]
Out: 0.634

In: Now the sequence LAAAKYKLNVD [SMARCA2_Y1190]
Out: 0.309

In: Now the sequence SETSRYLSDLF [KCNJ3_Y67]
Out: 0.485

In: Now the sequence KACKHYLTKRT [ZBTB5_Y118_T121K]
Out: 0.605

In: Now the sequence LNWIFYKDQTG [RS1_Y166_YF]
Out: 0.468

In: Now the sequence QQLQGYVPSNF [FRK_Y99_I100V_YF]
Out: 0.75

In: Now the sequence SLRAHYDTPRS [DOK7_Y405]
Out: 0.319

In: Now the sequence FSTPPYLLEAA [BRIP1_Y921_S919P_YF]
Out: 0.497

In: Now the sequence SGPRHYTIAAL [TTR_Y125_R124H]
Out: 0.464

In: Now the sequence YEPDAYDDLDQ [ELP5_Y302]
Out: 0.403

In: Now the sequence VFPATYHPDHW [EFCAB12_Y544_YF]
Out: 0.385

In: Now the sequence KYACSYTPVKA [FLNB_Y708_T703K]
Out: 0.414

In: Now the sequence SGPRCYTIAAL [TTR_Y125_R124C]
Out: 0.344

In: Now the sequence PKEEPYQMQEK [SLC5A3_Y565]
Out: 0.691

In: Now the sequence IGEVVYQRAAM [GRIN2A_Y502_V506A]
Out: 0.441

In: Now the sequence NKKYHYRELPV [ERN2_Y860_H858Y]
Out: 0.28

In: Now the sequence TVFSDYLHPQF [CCPG1_Y569_YF]
Out: 0.805

In: Now the sequence SISLRYEGRVF [ABL1_Y167_YF]
Out: 0.384

In: Now the sequence AMCVRYDGVEV [ADAMTSL2_Y594]
Out: 0.49

In: Now the sequence RPDSPYSRLHD [DOK2_Y271_P274L]
Out: 0.85

In: Now the sequence HLNLTYRILSF [MMP23B_Y95_F91L]
Out: 0.42

In: Now the sequence DPFHVYIKNHV [KCNE3_Y95_R99H_YF]
Out: 0.354

In: Now the sequence TVLWLYTGTRP [UGT1A1_Y337_R336L]
Out: 0.318

In: Now the sequence LERYIYNRQEF [HLA-DPB1_Y59_E62Q]
Out: 0.413

In: Now the sequence IGHHAYGDQFR [IDH1_Y135_R132H_YF]
Out: 0.397

In: Now the sequence FRVAGYKTQGG [TIA1_Y383_E384K_YF]
Out: 0.436

---

Answer each item with its documented SH2 binding enrichment.
Target: Grb2 SH2 (UniProt P62993)
Sequence (P62993 whole entry, looked up): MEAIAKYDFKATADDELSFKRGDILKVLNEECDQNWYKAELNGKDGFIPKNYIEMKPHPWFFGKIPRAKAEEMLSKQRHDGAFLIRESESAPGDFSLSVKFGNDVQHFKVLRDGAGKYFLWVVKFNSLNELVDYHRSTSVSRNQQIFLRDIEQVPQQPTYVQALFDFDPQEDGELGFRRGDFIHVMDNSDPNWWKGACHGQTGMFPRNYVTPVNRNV
Experiment: SH2 binding enrichment of the phosphorylated peptide, bacterial display (enrichment ratio); higher = better substrate or ligand; peptides without Tyr show the background
Answer as a number with no unit attached.

In: Request the reported SH2 binding enrichment associated with MPLDQYSPSFP [FGFR1_Y776]
Out: 1.08

In: Now the sequence PLTKVYVVEGS [ZMPSTE24_Y253]
Out: 0.841

In: Now the sequence YGGLRYGYGGL [KRTAP20-2_Y13_V17G]
Out: 0.955

In: Now the sequence ILCTVYAFKTR [GRM3_Y754]
Out: 1.3

In: Now the sequence KVNKIYFPDFI [LIG3_Y767_YF]
Out: 0.946

In: Now the sequence NTGNYYDLYGG [PTPN11_Y63_D61N]
Out: 1.08

In: Now the sequence FCVVRYCWLRR [MPZ_Y181_Y177C]
Out: 0.581

In: Now the sequence SVKVFYKKCWS [EPHA7_Y202_YF]
Out: 0.747

In: Now the sequence SKNYTYIWWLN [PSG4_Y271]
Out: 0.921

In: Now the sequence SETSRYLSDLF [KCNJ3_Y67]
Out: 0.942

In: Now the sequence LEIETCRRLLD [KRT12_Y429_Y429C]
Out: 0.883

In: Now the sequence YRASYYRRGDR [LTK_Y677]
Out: 0.704

In: Now the sequence RRVLVYRGRGA [QDPR_Y16_G17R]
Out: 0.71

In: Now the sequence GQECEYPPTQD [METAP2_Y137]
Out: 0.918

In: Now the sequence FETDFYQKGGK [INSR_Y1190_R1191Q_YF]
Out: 0.797

In: Now the sequence KDHLDYKYQPR [SOX9_Y172_P170L]
Out: 1.18

In: Now the sequence PKGIGYGQGAG [CSRP3_Y73]
Out: 0.823

In: Now the sequence QYKDKYLAKHN [CASK_Y712]
Out: 0.648

In: Now the sequence RVQKRYILDNV [RCN1_Y115_F117L]
Out: 0.804

In: Now the sequence IFETDYFRKGG [INSR_Y1189_YF]
Out: 0.918

In: Now the sequence SDGKRYRVPSD [HHIPL2_Y395_H391D]
Out: 0.781

In: Now the sequence GTFVIYVRFSG [FLNB_Y1687_G1691S_YF]
Out: 1.15

In: Now the sequence GGYTCYSDGKK [PROS1_Y266_C267S]
Out: 0.677

In: Now the sequence VTRDEYPSNPM [CEMIP2_Y1015_I1010V]
Out: 0.67

In: Now the sequence FRPPFYHRNCM [HGD_Y334_YF]
Out: 0.935

In: Now the sequence RIFDYYSARKT [STOX1_Y858_A863T]
Out: 0.701

In: Now the sequence LIEQAYDNPHE [PRPF8_Y871]
Out: 0.828

In: Now the sequence FKRAVYCIIGR [NUP93_Y391_YF]
Out: 1.01

In: Now the sequence FAGRDYSLDEF [MYOF_Y1705_G1701A_YF]
Out: 0.699
